# study.target: hS1P1 (Homo sapiens, UniProt P21453)
# Sequence (P21453 whole entry): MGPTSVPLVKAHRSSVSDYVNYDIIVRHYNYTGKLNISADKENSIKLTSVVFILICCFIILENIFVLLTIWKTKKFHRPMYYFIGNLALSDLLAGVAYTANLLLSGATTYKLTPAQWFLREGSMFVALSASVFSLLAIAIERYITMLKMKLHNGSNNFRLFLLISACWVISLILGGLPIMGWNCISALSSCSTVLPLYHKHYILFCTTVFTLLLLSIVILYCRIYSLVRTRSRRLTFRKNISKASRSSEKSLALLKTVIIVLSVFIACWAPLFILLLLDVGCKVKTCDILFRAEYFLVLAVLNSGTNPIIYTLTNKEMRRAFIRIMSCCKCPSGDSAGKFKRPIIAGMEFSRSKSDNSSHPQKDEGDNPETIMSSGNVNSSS
# method.notes: hS1P1 EC50 (S1P receptor Ca2+ flux protocol, FLIPR, CHO K1 Gqi5 cells)
# conditions: several values per compound = repeat determinations as printed
# Experimental: S1P receptor activity may also be measured by an SIP receptor (e.g., hS1P1, hS1P3, rS1P1, rS1P3 and parental cell) Ca^2+ Flux protocol as described below: • 1. Material • a. FLIPR buffer: 1x HBSS; 10mM HEPES • b. […] Activity measurement: The fluorescence signal change of the cells upon compound addition is monitored in FLIPRtetra. […] Signal is recorded for 90sec after compound addition. Then 50ul of 500nM SIP is added in the cell plate, and signal is recorded for 90 seconds upon addition. • 4. […]
endpoint.label: pEC50
The quantity pEC50 is defined as the negative base-10 logarithm of the molar concentration.

>>> observed("O=C(O)C1CN(Cc2ccc(-c3cc4cc(Cc5ccccc5)ncc4o3)c(F)c2)C1 [Reference Compound 108]")
6.39
>>> observed("O=C(O)C1CN(Cc2cnc(-c3cc4cc(Cc5ccccc5)ccc4o3)c(F)c2)C1 [Reference Compound 84]")
6.33
>>> observed("O=C(O)C1CCN(Cc2ccc(-c3cc4cc(C5CCCCC5)ccc4o3)cc2)CC1 [Reference Compound 7]")
5.80

# compound COc1cc(CN2CC(C(=O)O)C2)ccc1-c1cc2cc(C3CCCC3)ccc2o1 [Reference Compound 47] ; its pEC50 = 5.97

Sure, the documented pEC50 for O=C(O)C1CN(Cc2ccc(-c3cc4cc(N5CCCCC5)ccc4o3)cc2)C1 [Reference Compound 34] is 5.82

According to the records, this compound CC(CNCc1ccc(-c2cc3cc(Cc4ccccc4)ccc3o2)c(F)c1)C(=O)O (stereo not drawn) [Reference Compound 82] displays pEC50 of 5.89

The measured pEC50 associated with O=C(O)[C@H]1CCCN(Cc2ccc(-c3cc4cc(Cc5ccccc5)ccc4o3)c(F)c2)C1 [Reference Compound 63] reads 5.48

Entry O=C(c1ccccc1)c1ccc2oc(-c3ccc(CN4CC(C(=O)O)C4)cc3F)cc2c1 [Reference Compound 102] — recorded pEC50 = 7.10

Provenance of the data: patent EP2364976B1
